Just for reference, patent US20140121216A1 is where these values come from.

Tested on: α1 adrenergic receptors (rat cerebral cortex)
experiment description: Binding assay, α1 adrenergic receptor ([3H]prazosin)
test parameters: compound 1×10^−6 M
Class (by α1 [%] affinity test result) -- zone 1 (below 50%), zone 2 (50% to below 70%), zone 3 (70% or more)

Which class holds O=S(=O)(c1ccccc1)n1ccc2c(N3CCN(CCCOc4ccc(F)cc4)CC3)cccc21 [Compound 15] ?
zone 3

Moving on to the next compound: O=C1CCc2ccc(OCCCN3CCN(c4cccc5c4ccn5S(=O)(=O)c4ccccc4)CC3)cc2N1 [Compound 23]
zone 2

Moving on to the next compound: CC(C)Oc1ccccc1OCCCCN1CCN(c2cccc3c2ccn3S(=O)(=O)c2ccccc2)CC1 [Compound 71]
zone 1

Moving on to the next compound: O=S(=O)(c1ccccc1)n1ccc2c(N3CCN(CCCOc4ccccc4)CC3)cccc21 [Compound 12]
zone 3

Moving on to the next compound: NC(=O)c1ccccc1OCCCN1CCN(c2cccc3c2ccn3Cc2cccc(Cl)c2)CC1 [Compound 68]
zone 2

Moving on to the next compound: O=S(=O)(c1ccccc1)n1ccc2c(N3CCN(CCCOc4ccc5ccoc5c4)CC3)cccc21 [Compound 25]
zone 1

Moving on to the next compound: O=C1CCc2ccc(OCCCCN3CCN(c4cccc5c4ccn5Cc4cccc(F)c4)CC3)cc2N1 [Compound 63]
zone 3

Moving on to the next compound: O=S(=O)(c1ccccc1)n1ccc2c(N3CCN(CCCCOc4ccc(F)cc4)CC3)cccc21 [Compound 70]
zone 2

---

test system: D4.4 receptor, human recombinant (CHO cells) (Homo sapiens)
Construct: expressed in transfected cells; host or cells: CHO cells
Sequence (P21917 whole entry): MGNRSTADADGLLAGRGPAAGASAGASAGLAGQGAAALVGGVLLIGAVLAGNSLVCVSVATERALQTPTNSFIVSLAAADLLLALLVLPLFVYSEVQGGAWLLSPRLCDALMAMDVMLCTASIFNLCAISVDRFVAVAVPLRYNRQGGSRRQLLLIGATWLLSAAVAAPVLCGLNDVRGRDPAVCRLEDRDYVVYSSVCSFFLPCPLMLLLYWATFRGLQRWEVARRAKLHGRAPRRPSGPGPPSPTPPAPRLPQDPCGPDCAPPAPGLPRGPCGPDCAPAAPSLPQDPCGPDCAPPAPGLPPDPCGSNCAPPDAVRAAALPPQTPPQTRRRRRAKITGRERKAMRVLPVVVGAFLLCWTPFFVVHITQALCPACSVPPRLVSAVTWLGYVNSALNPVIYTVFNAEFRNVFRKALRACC
experiment description: Binding assay, dopaminergic D4.4 receptor ([3H]methylspiperone)
test parameters: compound 1×10^−6 M
reported endpoint: D4.4 [%] binding assay result

Tell me the measured D4.4 [%] binding assay result of O=C1CCc2ccc(OCCCN3CCN(c4cccc5c4ccn5Cc4ccccc4)CC3)cc2N1 , please.
63%

Moving on to the next molecule: O=C1CCc2ccc(OCCCCN3CCN(c4cccc5c4ccn5Cc4ccccc4)CC3)cc2N1
40%

Moving on to the next molecule: O=C1CCc2ccc(OCCCN3CCN(c4cccc5c4ccn5S(=O)(=O)c4ccccc4)CC3)cc2N1
18%

Moving on to the next molecule: O=C1CCc2ccc(OCCCCN3CCN(c4cccc5c4ccn5Cc4cccc(Cl)c4)CC3)cc2N1
44%

Moving on to the next molecule: O=C1CCc2ccc(OCCCCN3CCN(c4cccc5c4ccn5S(=O)(=O)c4ccccc4)CC3)cc2N1
42%

Moving on to the next molecule: O=C1CCc2ccc(OCCCCN3CCN(c4cccc5c4ccn5Cc4cccc(F)c4)CC3)cc2N1
46%

Moving on to the next molecule: NC(=O)c1ccccc1OCCCN1CCN(c2cccc3c2ccn3S(=O)(=O)c2ccccc2)CC1
95%

---

test system: D2S (h), human recombinant (HEK-293 cells) (Homo sapiens)
Construct: expressed in transfected cells; host or cells: HEK-293 cells
Sequence (P14416 1-414 isoform P14416-2): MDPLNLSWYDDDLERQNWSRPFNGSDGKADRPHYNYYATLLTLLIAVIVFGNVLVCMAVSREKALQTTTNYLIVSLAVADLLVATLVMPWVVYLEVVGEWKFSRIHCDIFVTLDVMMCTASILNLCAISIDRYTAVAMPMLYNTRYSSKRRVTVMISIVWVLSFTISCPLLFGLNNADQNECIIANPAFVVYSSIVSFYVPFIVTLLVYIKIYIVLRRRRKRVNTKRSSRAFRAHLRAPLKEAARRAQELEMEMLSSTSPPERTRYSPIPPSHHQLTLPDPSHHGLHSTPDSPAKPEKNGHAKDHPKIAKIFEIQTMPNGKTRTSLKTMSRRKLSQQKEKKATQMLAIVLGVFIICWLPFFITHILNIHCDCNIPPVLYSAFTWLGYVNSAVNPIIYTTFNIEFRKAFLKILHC
experiment description: Cellular functional assay D2S (h) antagonism
Type: cell-based
test parameters: HEK293; compound 1×10^−6 M; stimulus dopamine 30 nM; read-out: D2-antag [%]
reported endpoint: inhibition at 1 µM (%)
// units = %; emit number, no label

Tell me the measured inhibition at 1 µM of O=S(=O)(c1ccccc1)n1ccc2c(N3CCN(CCCOc4ccc5ccoc5c4)CC3)cccc21 , please.
75

Moving on to the next compound: O=C1CCc2ccc(OCCCCN3CCN(c4cccc5c4ccn5Cc4cccc(F)c4)CC3)cc2N1
108

Moving on to the next compound: O=C1CCc2ccc(OCCCCN3CCN(c4cccc5c4ccn5Cc4cccc(Cl)c4)CC3)cc2N1
103

Moving on to the next compound: O=C1CCc2ccc(OCCCCN3CCN(c4cccc5c4ccn5Cc4ccccc4)CC3)cc2N1
99

Moving on to the next compound: NC(=O)c1ccccc1OCCCN1CCN(c2cccc3c2ccn3S(=O)(=O)c2ccccc2)CC1
95

Moving on to the next compound: O=C1CCc2ccc(OCCCN3CCN(c4cccc5c4ccn5S(=O)(=O)c4ccccc4)CC3)cc2N1
55

Moving on to the next compound: O=C1CCc2ccc(OCCCCN3CCN(c4cccc5c4ccn5S(=O)(=O)c4ccccc4)CC3)cc2N1
93

Moving on to the next compound: O=S(=O)(c1ccccc1)n1ccc2c(N3CCN(CCCOc4ccc(F)cc4)CC3)cccc21
68

Moving on to the next compound: O=S(=O)(c1ccccc1)n1ccc2c(N3CCN(CCCOc4ccccc4)CC3)cccc21
73

Moving on to the next compound: O=C1CCc2ccc(OCCCN3CCN(c4cccc5c4ccn5Cc4ccccc4)CC3)cc2N1
89

---

test system: 5-HT2C receptor, human recombinant (HEK-293 cells) (Homo sapiens)
Construct: expressed in transfected cells; host or cells: HEK-293 cells
Sequence (P28335 33-458): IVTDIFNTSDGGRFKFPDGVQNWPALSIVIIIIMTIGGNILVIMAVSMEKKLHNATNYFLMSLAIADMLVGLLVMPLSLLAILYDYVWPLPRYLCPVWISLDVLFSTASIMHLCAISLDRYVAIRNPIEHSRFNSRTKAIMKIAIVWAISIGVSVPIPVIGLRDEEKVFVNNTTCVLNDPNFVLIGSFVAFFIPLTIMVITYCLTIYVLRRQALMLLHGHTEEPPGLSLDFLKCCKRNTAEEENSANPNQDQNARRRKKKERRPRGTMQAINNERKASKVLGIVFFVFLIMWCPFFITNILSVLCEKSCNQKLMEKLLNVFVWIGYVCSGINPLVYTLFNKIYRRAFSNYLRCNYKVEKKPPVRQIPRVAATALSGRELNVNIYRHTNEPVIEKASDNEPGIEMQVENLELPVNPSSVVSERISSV
experiment description: Binding assay, 5-HT2C receptor ([3H]mesulergine)
test parameters: compound 1×10^−6 M
I'd be grateful if you could share measured 5-HT2C [%] binding assay result for these entries.
// units = %; emit number, no label

Quick check: 5-HT2C [%] binding assay result on 5-HT2C receptor, human recombinant (HEK-293 cells) (Homo sapiens), item O=C1CCc2ccc(OCCCCN3CCN(c4cccc5c4ccn5Cc4ccccc4)CC3)cc2N1 ?
86

Moving on to the next compound: O=C1CCc2ccc(OCCCN3CCN(c4cccc5c4ccn5S(=O)(=O)c4ccccc4)CC3)cc2N1
0

Moving on to the next compound: NC(=O)c1ccccc1OCCCN1CCN(c2cccc3c2ccn3S(=O)(=O)c2ccccc2)CC1
35

Moving on to the next compound: O=C1CCc2ccc(OCCCN3CCN(c4cccc5c4ccn5Cc4ccccc4)CC3)cc2N1
73

Moving on to the next compound: O=C1CCc2ccc(OCCCCN3CCN(c4cccc5c4ccn5S(=O)(=O)c4ccccc4)CC3)cc2N1
48

Moving on to the next compound: O=C1CCc2ccc(OCCCCN3CCN(c4cccc5c4ccn5Cc4cccc(Cl)c4)CC3)cc2N1
76

Moving on to the next compound: O=C1CCc2ccc(OCCCCN3CCN(c4cccc5c4ccn5Cc4cccc(F)c4)CC3)cc2N1
89

---

test system: D3 (h), human recombinant (CHO cells) (Homo sapiens, UniProt P35462)
Construct: expressed in transfected cells; host or cells: CHO cells
Sequence (P35462 whole entry): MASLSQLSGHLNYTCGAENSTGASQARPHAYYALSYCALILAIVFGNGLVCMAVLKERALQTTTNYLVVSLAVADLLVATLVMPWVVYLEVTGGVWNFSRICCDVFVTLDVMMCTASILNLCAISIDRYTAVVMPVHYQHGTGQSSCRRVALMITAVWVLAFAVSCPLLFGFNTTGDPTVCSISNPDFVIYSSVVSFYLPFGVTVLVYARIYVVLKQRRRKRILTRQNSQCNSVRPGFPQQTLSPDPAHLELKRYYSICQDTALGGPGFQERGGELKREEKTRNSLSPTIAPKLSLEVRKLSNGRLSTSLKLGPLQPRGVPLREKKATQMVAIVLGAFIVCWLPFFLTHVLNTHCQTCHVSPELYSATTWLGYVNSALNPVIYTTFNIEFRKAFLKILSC
experiment description: Cellular functional assay D3 (h) antagonism
Format: cell-based
test parameters: compound 1×10^−6 M; stimulus dopamine 10 nM
I'd be grateful if you could share measured D3-antag [%] for these entries.
// units = %; emit number, no label

Tell me the measured D3-antag [%] of O=C1CCc2ccc(OCCCN3CCN(c4cccc5c4ccn5Cc4ccccc4)CC3)cc2N1 , please.
29

Moving on to the next compound: O=C1CCc2ccc(OCCCCN3CCN(c4cccc5c4ccn5Cc4cccc(F)c4)CC3)cc2N1
72

Moving on to the next compound: O=C1CCc2ccc(OCCCN3CCN(c4cccc5c4ccn5S(=O)(=O)c4ccccc4)CC3)cc2N1
−19

Moving on to the next compound: O=C1CCc2ccc(OCCCCN3CCN(c4cccc5c4ccn5S(=O)(=O)c4ccccc4)CC3)cc2N1
63.2

Moving on to the next compound: O=C1CCc2ccc(OCCCCN3CCN(c4cccc5c4ccn5Cc4cccc(Cl)c4)CC3)cc2N1
74

Moving on to the next compound: NC(=O)c1ccccc1OCCCN1CCN(c2cccc3c2ccn3S(=O)(=O)c2ccccc2)CC1
74

Moving on to the next compound: O=C1CCc2ccc(OCCCCN3CCN(c4cccc5c4ccn5Cc4ccccc4)CC3)cc2N1
43

---

test system: 5-HT2A receptor, human recombinant (Homo sapiens)
experiment description: Binding assay, 5-HT2A receptor ([3H]ketanserin)
Set-up: purchased PerkinElmer
test parameters: read-out: Inhibition constant Ki 5-HT2A
I'd be grateful if you could share measured Ki for these entries.

Tell me the measured Ki of NC(=O)c1ccccc1OCCCN1CCN(c2cccc3c2ccn3S(=O)(=O)c2ccccc2)CC1 , please.
18 nM

Moving on to the next molecule: O=C1CCc2ccc(OCCCCN3CCN(c4cccc5c4ccn5S(=O)(=O)c4ccccc4)CC3)cc2N1
3.2 nM

Moving on to the next molecule: O=C1CCc2ccc(OCCCN3CCN(c4cccc5c4ccn5S(=O)(=O)c4ccccc4)CC3)cc2N1
170 nM

---

test system: hERG potassium channels (KCNH2 gene, expressed in CHO cells) (Homo sapiens, UniProt Q12809)
Construct: expressed in transfected cells; host or cells: CHO cells
Sequence (Q12809 whole entry): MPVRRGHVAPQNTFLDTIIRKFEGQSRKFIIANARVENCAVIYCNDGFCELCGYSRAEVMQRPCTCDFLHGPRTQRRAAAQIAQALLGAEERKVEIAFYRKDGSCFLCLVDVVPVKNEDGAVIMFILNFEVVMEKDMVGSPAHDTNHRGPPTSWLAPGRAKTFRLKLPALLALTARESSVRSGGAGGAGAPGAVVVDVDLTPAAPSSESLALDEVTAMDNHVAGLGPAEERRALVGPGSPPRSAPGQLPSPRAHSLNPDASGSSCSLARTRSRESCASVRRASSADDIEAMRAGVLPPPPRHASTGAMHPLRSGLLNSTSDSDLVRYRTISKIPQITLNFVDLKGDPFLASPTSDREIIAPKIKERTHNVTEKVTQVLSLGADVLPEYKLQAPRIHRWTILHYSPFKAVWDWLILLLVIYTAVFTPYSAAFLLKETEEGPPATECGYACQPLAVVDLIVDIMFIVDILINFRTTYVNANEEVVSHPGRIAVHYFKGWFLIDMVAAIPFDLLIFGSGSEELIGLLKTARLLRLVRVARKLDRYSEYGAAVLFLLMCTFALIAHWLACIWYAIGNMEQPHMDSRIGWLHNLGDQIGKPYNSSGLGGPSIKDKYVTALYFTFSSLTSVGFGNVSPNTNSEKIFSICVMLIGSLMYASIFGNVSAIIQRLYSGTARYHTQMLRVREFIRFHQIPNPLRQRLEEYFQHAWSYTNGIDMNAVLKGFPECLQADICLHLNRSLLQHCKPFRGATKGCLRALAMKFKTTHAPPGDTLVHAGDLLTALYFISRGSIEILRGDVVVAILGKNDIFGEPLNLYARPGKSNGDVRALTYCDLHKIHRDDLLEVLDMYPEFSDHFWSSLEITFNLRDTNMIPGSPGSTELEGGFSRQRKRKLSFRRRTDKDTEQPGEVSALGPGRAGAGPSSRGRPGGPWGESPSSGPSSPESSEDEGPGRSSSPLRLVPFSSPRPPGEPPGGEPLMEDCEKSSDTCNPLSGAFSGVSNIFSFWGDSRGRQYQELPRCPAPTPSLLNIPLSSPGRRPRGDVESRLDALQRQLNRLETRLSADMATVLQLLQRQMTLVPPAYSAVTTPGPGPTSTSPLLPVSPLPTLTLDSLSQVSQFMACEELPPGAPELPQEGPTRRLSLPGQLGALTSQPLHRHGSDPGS
experiment description: Ability to block hERG potassium channel, electrophysiology (IonWorks Quattro)
Format: cell-based
test parameters: compound 1×10^−5 M
reported endpoint: hERG [%] (% block of hERG current)
Don't forget the unit after the value.

Tell me the measured hERG [%] (% block of hERG current) of O=C1CCc2ccc(OCCCCN3CCN(c4cccc5c4ccn5Cc4ccccc4)CC3)cc2N1 [Compound 5] , please.
30%

Moving on to the next molecule: O=C1CCc2ccc(OCCCN3CCN(c4cccc5c4ccn5Cc4ccccc4)CC3)cc2N1 [Compound 4]
27%

Moving on to the next molecule: O=C1CCc2ccc(OCCCN3CCN(c4cccc5c4ccn5S(=O)(=O)c4ccccc4)CC3)cc2N1 [Compound 23]
7%

Moving on to the next molecule: O=C1CCc2ccc(OCCCCN3CCN(c4cccc5c4ccn5S(=O)(=O)c4ccccc4)CC3)cc2N1 [Compound 24]
9%
